- Species: Homo sapiens
- run-description: Selectivity ratio of IC50 for recombinant human His6-tagged SIRT3 to IC50 for recombinant human GST or His6-tagged SIRT1
Reported Ratio IC50 values are given for each entry in this list.
endpoint: Ratio IC50

smiles_str=CC(=S)NCCCC[C@@H]1NC(=O)[C@H](Cc2csc3ccccc23)NC(=O)CCCCCCC(=O)NCCCC[C@@H](C(N)=O)NC1=O readout_value=7.6
smiles_str=CC(=S)NCCCC[C@@H]1NC(=O)CNCCC(=O)NCCCC[C@@H](C(N)=O)NC1=O readout_value=2.6
smiles_str=CC(=S)NCCCC[C@@H]1NC(=O)[C@H](Cc2csc3ccccc23)NC(=O)CCCCCCC(=O)NC[C@@H](C(N)=O)NC1=O readout_value=2.1
smiles_str=CCCC[C@@H]1NC(=O)CCCCCCC(=O)NCCCC[C@@H](C(N)=O)NC(=O)[C@H](CCCCNC(C)=S)NC1=O readout_value=2.1
smiles_str=CC(=S)NCCCC[C@@H]1NC(=O)[C@H](Cc2ccc3ccccc3c2)NC(=O)CCCCCCC(=O)NC[C@@H](C(N)=O)NC1=O readout_value=4.9
smiles_str=CCCC[C@@H]1NC(=O)CCCCCCC(=O)NC[C@@H](C(N)=O)NC(=O)[C@H](CCCCNC(C)=S)NC1=O readout_value=2.4
smiles_str=CC(=S)NCCCC[C@@H]1NC(=O)[C@H](Cc2ccc3ccccc3c2)NC(=O)CCCCCCC(=O)NCCCC[C@@H](C(N)=O)NC1=O readout_value=3.4

----------
- target-or-system: UniProtKB Q96EB6
- Sequence (Q96EB6 whole entry): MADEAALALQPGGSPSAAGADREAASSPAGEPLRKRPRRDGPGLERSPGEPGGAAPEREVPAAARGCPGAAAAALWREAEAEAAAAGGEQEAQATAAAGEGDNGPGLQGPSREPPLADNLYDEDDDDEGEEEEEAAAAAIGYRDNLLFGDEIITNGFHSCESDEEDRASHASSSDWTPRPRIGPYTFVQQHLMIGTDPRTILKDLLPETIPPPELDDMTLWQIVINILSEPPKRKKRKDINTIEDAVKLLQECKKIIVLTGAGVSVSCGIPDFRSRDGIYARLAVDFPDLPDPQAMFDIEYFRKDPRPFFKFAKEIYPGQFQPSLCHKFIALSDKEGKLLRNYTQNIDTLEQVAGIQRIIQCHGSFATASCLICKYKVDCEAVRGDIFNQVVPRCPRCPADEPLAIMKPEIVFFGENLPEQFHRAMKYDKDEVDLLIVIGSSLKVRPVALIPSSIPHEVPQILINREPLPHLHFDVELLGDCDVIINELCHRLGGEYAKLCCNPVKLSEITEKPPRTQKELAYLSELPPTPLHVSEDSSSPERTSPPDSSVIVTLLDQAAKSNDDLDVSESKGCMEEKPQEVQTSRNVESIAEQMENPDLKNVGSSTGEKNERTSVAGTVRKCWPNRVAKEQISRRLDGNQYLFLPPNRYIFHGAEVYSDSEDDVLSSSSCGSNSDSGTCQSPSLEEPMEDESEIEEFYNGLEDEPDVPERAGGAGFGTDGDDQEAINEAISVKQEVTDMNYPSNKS
- run-description: Inhibition of recombinant human GST or His6-tagged SIRT1 using H2N-HK-[Nepsilon-acetyl-lysine]-LM-COOH as substrate incubated for 10 mins in presence of beta-NAD+ by HPLC based assay
pIC50: −log10 of the molar value.
// reported pIC50 for each item listed
endpoint: pIC50

smiles_str=CC(=S)NCCCC[C@@H]1NC(=O)[C@H](Cc2csc3ccccc23)NC(=O)CCCCCCC(=O)NCCC[C@@H](C(N)=O)NC1=O target_or_system="UniProtKB Q96EB6" endpoint=pIC50 readout_value=6.17
smiles_str=CCCC[C@@H]1NC(=O)CCCCCCC(=O)NCC[C@@H](C(N)=O)NC(=O)[C@H](CCCCNC(C)=S)NC1=O target_or_system="UniProtKB Q96EB6" endpoint=pIC50 readout_value=6.09
smiles_str=CC(=S)NCCCC[C@@H]1NC(=O)[C@H](Cc2csc3ccccc23)NC(=O)CCCCCCC(=O)NCC[C@@H](C(N)=O)NC1=O target_or_system="UniProtKB Q96EB6" endpoint=pIC50 readout_value=5.90
smiles_str=CC(=S)NCCCC[C@@H]1NC(=O)CNC(=O)CCCCCCC(=O)NCCCC[C@@H](C(N)=O)NC1=O target_or_system="UniProtKB Q96EB6" endpoint=pIC50 readout_value=5.42
